Every entry's value here was drawn from patent US20030195212A1.

tested on: MC1 receptor (Mus musculus)
Construct: B16 mouse melanoma cells were used, which endogenously express the (mouse) MC1 receptor; endogenous in cells
Sequence (Q01727 whole entry): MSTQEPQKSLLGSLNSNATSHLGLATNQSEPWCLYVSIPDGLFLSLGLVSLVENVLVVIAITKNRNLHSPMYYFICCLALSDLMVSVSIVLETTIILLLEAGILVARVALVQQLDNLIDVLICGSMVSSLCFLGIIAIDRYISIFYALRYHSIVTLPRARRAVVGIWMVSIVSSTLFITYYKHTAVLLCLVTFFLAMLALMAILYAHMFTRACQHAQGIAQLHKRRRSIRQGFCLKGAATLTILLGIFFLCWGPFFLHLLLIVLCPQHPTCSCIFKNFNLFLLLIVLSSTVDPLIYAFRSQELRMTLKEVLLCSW
test protocol: Affinity for the MC1-receptor, displacement of I125-NDP-MSH
details: B16 mouse melanoma cells, I125-NDP-MSH ligand; read-out: Affinity for MC-receptors Ki MC1
pKi: −log10 of the molar value.
reported endpoint: pKi

Prompt: Return reported pKi; argument: CCn1c2ccccc2c2cc(NC(=O)C(Cc3c[nH]c4ccccc34)NC(=O)CCCN)ccc21 (centres unmarked) [Compound 2:7]
Response: 5.59

[a] N=C(N)NCCCCN(Cc1ccccc1)C(=O)C(Cc1c[nH]c2ccccc12)NC(=O)Cc1ccc2ccccc2c1 (centres unmarked) [Compound 1:17]
[b] CCn1c2ccccc2c2cc(NC(=O)C(Cc3c[nH]c4ccccc34)NC(=O)CCCNC(=N)N)ccc21 (centres unmarked) [2:6]
Prompt: For the pair a and b , which member has the lower pKi number? Field: selected label. Fill in the label of the entry you choose.
Response: b
(b: 5.57, a: 6.22)

[I] N=C(N)NCCCCN(Cc1ccccc1)C(=O)C(Cc1c[nH]c2ccccc12)NC(=O)CCCc1ccccc1 (centres unmarked) [Compound 1:15]
[II] NCCCNC(=O)C(Cc1c[nH]c2ccccc12)NC(=O)Cc1cccc2ccccc12 (centres unmarked) [1:6]
Prompt: Param pair: I , II . Output: the one whose pKi is numerically greater. Field: selected label. Fill in the label of the entry you choose.
Response: I

----------
tested on: UniProt:P32245
pKi: −log10 of the molar value.
reported endpoint: pKi

[1] N=C(N)NCCCCN(Cc1ccccc1)C(=O)C(Cc1c[nH]c2ccccc12)NC(=O)Cc1ccc2ccccc2c1 (centres unmarked)
[2] N=C(N)NCCCCN(Cc1ccccc1)C(=O)C(Cc1c[nH]c2ccccc12)NC(=O)CCCc1ccccc1 (centres unmarked)
Prompt: Param pair: 1 , 2 . Output: the one whose pKi is numerically greater. Field: selected label. Fill in the label of the entry you choose.
Response: 1

----------
tested on: MC1 receptor (Mus musculus)
Construct: B16 mouse melanoma cells were used, which endogenously express the (mouse) MC1 receptor; endogenous in cells; host or cells: B16 mouse melanoma cells
test protocol: cAMP assay, MC1 receptor (mouse melanoma B16 cells)
Format: cell-based
details: 20 minutes at +37° C.
# Lookup of reported Influence on cAMP MC1c keyed by entry

Here's what some known entries look like.
Prompt: Return reported Influence on cAMP MC1c; argument: CCn1c2ccccc2c2cc(NC(=O)C(Cc3c[nH]c4ccccc34)NC(=O)CCN)ccc21 (stereo not shown) [2:14]
Response: 162 percentage of the baseline

Prompt: Return reported Influence on cAMP MC1c; argument: CCn1c2ccccc2c2cc(NC(=O)C(Cc3c[nH]c4ccccc34)NC(=O)CCCNC(=N)N)ccc21 (stereo not shown) [2:6]
Response: 354 percentage of the baseline

Prompt: Return reported Influence on cAMP MC1c; argument: NCCCNC(=O)C(Cc1c[nH]c2ccccc12)NC(=O)Cc1cccc2ccccc12 (stereo not shown) [1:6]
Response: 375 percentage of the baseline

Now for another entry.
Prompt: Return reported Influence on cAMP MC1c; argument: CCn1c2ccccc2c2cc(NC(=O)C(Cc3c[nH]c4ccccc34)NC(=O)CCCN)ccc21 (stereo not shown) [Compound 2:7]
Response: 315 percentage of the baseline

----------
# Lookup of reported Influence on cAMP MC4c keyed by entry
tested on: human MC4 receptor (Homo sapiens, UniProt P32245)
Construct: expressed in transfected cells; host or cells: Sf9 insect cells or COS cells
Sequence (P32245 whole entry): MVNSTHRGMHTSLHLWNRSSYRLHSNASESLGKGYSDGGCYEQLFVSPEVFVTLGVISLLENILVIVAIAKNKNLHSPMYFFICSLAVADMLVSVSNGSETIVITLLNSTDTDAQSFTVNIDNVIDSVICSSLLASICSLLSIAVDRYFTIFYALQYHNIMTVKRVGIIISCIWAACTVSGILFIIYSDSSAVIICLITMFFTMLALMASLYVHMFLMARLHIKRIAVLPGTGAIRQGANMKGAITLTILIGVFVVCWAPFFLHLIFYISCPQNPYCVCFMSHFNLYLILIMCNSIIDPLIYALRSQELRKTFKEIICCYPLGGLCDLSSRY
test protocol: cAMP assay, MC4 receptor (transfected Sf9 or COS cells)
Type: cell-based
details: 20 minutes at +37° C.

Prompt: Please provide the recorded Influence on cAMP MC4c for CCn1c2ccccc2c2cc(NC(=O)C(Cc3c[nH]c4ccccc34)NC(=O)CCN)ccc21 (stereo not shown) [2:14] , tested on human MC4 receptor (Homo sapiens, UniProt P32245).
Response: 237 percentage of the baseline

Prompt: Please provide the recorded Influence on cAMP MC4c for CCn1c2ccccc2c2cc(NC(=O)C(Cc3c[nH]c4ccccc34)NC(=O)CCCN)ccc21 (stereo not shown) [Compound 2:7] , tested on human MC4 receptor (Homo sapiens, UniProt P32245).
Response: 79 percentage of the baseline

Prompt: Please provide the recorded Influence on cAMP MC4c for NCCCNC(=O)C(Cc1c[nH]c2ccccc12)NC(=O)Cc1cccc2ccccc12 (stereo not shown) [1:6] , tested on human MC4 receptor (Homo sapiens, UniProt P32245).
Response: 99 percentage of the baseline

Now for another entry.
Prompt: Please provide the recorded Influence on cAMP MC4c for CCn1c2ccccc2c2cc(NC(=O)C(Cc3c[nH]c4ccccc34)NC(=O)CCCNC(=N)N)ccc21 (stereo not shown) [2:6] , tested on human MC4 receptor (Homo sapiens, UniProt P32245).
Response: 61 percentage of the baseline
